# Test target: Mu-type opioid receptor (Cavia porcellus)
# Sequence (P97266 whole entry): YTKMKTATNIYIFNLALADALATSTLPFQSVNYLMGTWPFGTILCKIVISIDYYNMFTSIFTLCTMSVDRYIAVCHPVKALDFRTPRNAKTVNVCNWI
# Method description: Binding affinity was measured by the displacement of [3H]- DAMGO in guinea pig brain membrane of opioid receptor mu
# Format: cell membranes
Property measured: Ki (nM)
Answers are plain numbers, in nM.

Example cases with answers are listed next.
- Cpd smiles: "CN1CC[C@]23c4c5ccc(O)c4O[C@H]2c2[nH]c4ccccc4c2C[C@@]3(O)[C@H]1C5"
  Ki (nM): 468
- Cpd smiles: "C=CCN1CC[C@]23c4c5ccc(O)c4O[C@H]2c2[nH]c4ccccc4c2C[C@@]3(O)[C@H]1C5"
  Ki (nM): 104
- Cpd smiles: "Oc1ccc2c3c1O[C@H]1c4[nH]c5ccc(F)cc5c4C[C@@]4(O)[C@@H](C2)N(CC2CC2)CC[C@]314"
  Ki (nM): 1.7
- Cpd smiles: "COc1cccc2c3c([nH]c12)[C@@H]1Oc2c(O)ccc4c2[C@@]12CCN(CC1CC1)[C@H](C4)[C@]2(O)C3"
  Ki (nM): 16
- Cpd smiles: "COc1ccc2c3c1O[C@H]1c4[nH]c5ccccc5c4C[C@@]4(O)[C@@H](C2)N(CC2CC2)CC[C@]314"
  Ki (nM): 550
- Cpd smiles: "Oc1ccc2c3c1O[C@H]1c4c(c5ccccc5n4-c4ccccc4)C[C@@]4(O)[C@@H](C2)N(CC2CC2)CC[C@]314"
  Ki (nM): 28
- Cpd smiles: "Oc1ccc2c3c1O[C@H]1c4[nH]c5c(F)cccc5c4C[C@@]4(O)[C@@H](C2)N(CC2CC2)CC[C@]314"
  Ki (nM): 49

Q. Reported Ki for `Oc1ccc2c3c1O[C@H]1c4[nH]c5c(Br)cccc5c4C[C@@]4(O)[C@@H](C2)N(CC2CC2)CC[C@]314` : what is it?
A. 29

---

# Test target: Delta-type opioid receptor (Mus musculus)
# Method description: Antagonist potency was determined as the ratio of [antagonist] to (IC50 ratio-1) for opioid receptor delta 1
# Format: functional
yes means recorded Ke is 2 nM or above; no means it is below 2 nM.

- Cpd smiles: "COc1ccc2c3c1O[C@H]1c4[nH]c5ccccc5c4C[C@@]4(O)[C@@H](C2)N(CC2CC2)CC[C@]314"
  Group: "yes"

Here's the next entry for you.
Q. Could you please find out whether `COc1ccc2[nH]c3c(c2c1)C[C@@]1(O)[C@H]2Cc4ccc(O)c5c4[C@@]1(CCN2CC1CC1)[C@H]3O5` has Ke that meets 2 nM or exceeds it?
A. yes

---

# Test target: Mu-type opioid receptor (Cavia porcellus)
# Method description: Binding affinity was measured by the displacement of [3H]- DAMGO in guinea pig brain membrane of Opioid receptor mu 1
# Assay type: cell membranes
Record form. Attribute: Ki. Fill in for each entry.
Answers are plain numbers, in nM.

Observe how each entry below is paired with its result.
- Cpd smiles: "COc1cccc2c3c([nH]c12)[C@@H]1Oc2c(O)ccc4c2[C@@]12CCN(CC1CC1)[C@H](C4)[C@]2(O)C3"
  Ki [nM]: 16
- Cpd smiles: "Oc1ccc2c3c1O[C@H]1c4[nH]c5ccc(F)cc5c4C[C@@]4(O)[C@@H](C2)N(CC2CC2)CC[C@]314"
  Ki [nM]: 1.7
- Cpd smiles: "Oc1ccc2c3c1O[C@H]1c4[nH]c5c(Br)cccc5c4C[C@@]4(O)[C@@H](C2)N(CC2CC2)CC[C@]314"
  Ki [nM]: 29

For every item below, please supply its Ki.
1. Oc1ccc2c3c1O[C@H]1c4c(c5ccccc5n4-c4ccccc4)C[C@@]4(O)[C@@H](C2)N(CC2CC2)CC[C@]314
2. CN1CC[C@]23c4c5ccc(O)c4O[C@H]2c2[nH]c4ccccc4c2C[C@@]3(O)[C@H]1C5
3. Oc1ccc2c3c1O[C@H]1c4[nH]c5c(F)cccc5c4C[C@@]4(O)[C@@H](C2)N(CC2CC2)CC[C@]314
4. COc1ccc2c3c1O[C@H]1c4[nH]c5ccccc5c4C[C@@]4(O)[C@@H](C2)N(CC2CC2)CC[C@]314

A.
1. 28
2. 468
3. 49
4. 550

---

Give IC50 ratio for every item shown.
# Test target: Kappa-type opioid receptor (Cavia porcellus) (UniProt P41144)
# Sequence (P41144 whole entry): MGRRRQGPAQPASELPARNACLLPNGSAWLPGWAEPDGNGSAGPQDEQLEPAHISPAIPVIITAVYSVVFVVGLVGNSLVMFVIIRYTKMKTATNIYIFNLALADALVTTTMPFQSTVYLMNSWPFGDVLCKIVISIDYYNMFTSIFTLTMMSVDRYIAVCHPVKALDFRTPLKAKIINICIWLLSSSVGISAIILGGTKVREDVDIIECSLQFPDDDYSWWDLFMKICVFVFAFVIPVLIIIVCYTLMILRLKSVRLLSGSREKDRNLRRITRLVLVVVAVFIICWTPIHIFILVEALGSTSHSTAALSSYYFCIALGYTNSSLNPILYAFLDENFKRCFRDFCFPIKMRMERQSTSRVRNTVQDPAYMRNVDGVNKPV
# Method description: Opioid receptor kappa 1 antagonistic activity was measured by the displacement of ethylketazocine in the guinea pig ileum at a concentration of 100 nM
# Type: functional, tissue-based
Where a SMILES comes first, the peptide text is derived from it. [ ]: non-standard residue; d: D form. The star is where a group is joined. Tyr(Nα,Nα-allyl2) = C=CCN(CC=C)[C@@H](Cc1ccc(O)cc1)C(=O)*; Aib = CC(C)(N)C(=O)O
One number for each entry.

Below, 8 compounds whose answers are already recorded.
- Compound: "CN1CC[C@]23c4c5ccc(O)c4O[C@H]2c2c(c4ccccc4n2C)C[C@@]3(O)[C@H]1C5"
  IC50 ratio: 0.5
- Compound: "Cc1ccc2c3c([nH]c2c1)[C@@H]1Oc2c(O)ccc4c2[C@@]12CCN(CC1CC1)[C@H](C4)[C@]2(O)C3"
  IC50 ratio: 1.7
- Compound: "Cc1cccc2c3c([nH]c12)[C@@H]1Oc2c(O)ccc4c2[C@@]12CCN(CC1CC1)[C@H](C4)[C@]2(O)C3"
  IC50 ratio: 1.3
- Compound: "COc1cccc2c3c([nH]c12)[C@@H]1Oc2c(O)ccc4c2[C@@]12CCN(CC1CC1)[C@H](C4)[C@]2(O)C3"
  IC50 ratio: 1.5
- Compound: "Oc1ccc2[nH]c3c(c2c1)C[C@@]1(O)[C@H]2Cc4ccc(O)c5c4[C@@]1(CCN2CC1CC1)[C@H]3O5"
  IC50 ratio: 3.1
- Compound: "C=CCN(CC=C)[C@@H](Cc1ccc(O)cc1)C(=O)NC(C)(C)C(=O)NC(C)(C)C(=O)N[C@@H](Cc1ccccc1)C(=O)N[C@@H](CC(C)C)C(=O)O ({Tyr(Nα,Nα-allyl2)}-[Aib][Aib]FL-OH)"
  IC50 ratio: 0.8
- Compound: "Oc1ccc2c3c1O[C@H]1c4[nH]c5c(ccc6ccccc65)c4C[C@@]4(O)[C@@H](C2)N(CC2CC2)CC[C@]314"
  IC50 ratio: 0.9
- Compound: "Oc1ccc2c3c1O[C@H]1c4[nH]c5c(F)cccc5c4C[C@@]4(O)[C@@H](C2)N(CC2CC2)CC[C@]314"
  IC50 ratio: 1.3

Field: next compound
Q. Hi! What's the reported IC50 ratio for `CCOc1cccc2c3c([nH]c12)[C@@H]1Oc2c(O)ccc4c2[C@@]12CCN(CC1CC1)[C@H](C4)[C@]2(O)C3` on Kappa-type opioid receptor (Cavia porcellus) (UniProt P41144)?
A. 0.67

---

Assign Selectivity ratio to each entry below.
# Test target: Opioid receptors; mu & delta (Homo sapiens) (UniProt P41143+P35372)
# Sequence (P35372 whole entry, looked up): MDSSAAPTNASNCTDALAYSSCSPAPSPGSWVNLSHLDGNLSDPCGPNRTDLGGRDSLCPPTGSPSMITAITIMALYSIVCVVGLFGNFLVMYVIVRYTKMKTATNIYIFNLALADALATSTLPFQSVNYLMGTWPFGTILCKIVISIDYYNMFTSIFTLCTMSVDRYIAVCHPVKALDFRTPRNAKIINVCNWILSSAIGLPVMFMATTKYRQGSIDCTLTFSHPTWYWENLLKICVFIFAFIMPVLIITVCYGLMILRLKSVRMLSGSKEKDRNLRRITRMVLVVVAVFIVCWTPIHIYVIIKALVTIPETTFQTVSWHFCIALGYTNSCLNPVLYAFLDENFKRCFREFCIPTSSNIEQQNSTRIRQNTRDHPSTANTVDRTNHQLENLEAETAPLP
# Sequence (P41143 whole entry, looked up): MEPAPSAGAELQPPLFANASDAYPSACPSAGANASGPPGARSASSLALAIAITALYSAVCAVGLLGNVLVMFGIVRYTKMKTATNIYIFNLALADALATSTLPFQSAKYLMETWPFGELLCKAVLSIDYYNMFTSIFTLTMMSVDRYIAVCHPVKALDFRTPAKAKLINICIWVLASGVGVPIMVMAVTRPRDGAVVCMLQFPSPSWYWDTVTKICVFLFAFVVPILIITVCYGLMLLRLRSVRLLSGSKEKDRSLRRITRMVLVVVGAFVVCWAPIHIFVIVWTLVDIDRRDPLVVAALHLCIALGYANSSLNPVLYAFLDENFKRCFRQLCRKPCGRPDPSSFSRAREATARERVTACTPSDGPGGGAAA
# Method description: Selectivity ratio was determined from Ke value of Opioid receptor mu 1 and Opioid receptor delta 1
# Type: protein assay
# Conditions used: Cavia porcellus

- Cpd smiles: "Oc1ccc2c3c1O[C@H]1c4[nH]c5c(O)cccc5c4C[C@@]4(O)[C@@H](C2)N(CC2CC2)CC[C@]314"
  Selectivity ratio: "> 264"
- Cpd smiles: "Cc1ccc2[nH]c3c(c2c1)C[C@@]1(O)[C@H]2Cc4ccc(O)c5c4[C@@]1(CCN2CC1CC1)[C@H]3O5"
  Selectivity ratio: "> 45"
- Cpd smiles: "Oc1ccc2c3c1O[C@H]1c4c(c5ccccc5n4-c4ccccc4)C[C@@]4(O)[C@@H](C2)N(CC2CC2)CC[C@]314"
  Selectivity ratio: "> 48"

Proceed to the following item.
Q. Form: Entry = `Oc1ccc2c3c1O[C@H]1c4[nH]c5ccc(F)cc5c4C[C@@]4(O)[C@@H](C2)N(CC2CC2)CC[C@]314` | System = Opioid receptors; mu & delta (Homo sapiens) (UniProt P41143+P35372) | Selectivity ratio = ____
A. 25

---

# Test target: Mu-type opioid receptor (Cavia porcellus) (UniProt P97266)
# Method description: Opioid receptor mu 1 antagonistic activity was measured by the displacement of morphine in the guinea pig ileum at a concentration of 100 nM
# Type: functional, tissue-based
Where a SMILES comes first, the peptide text is derived from it. [ ]: non-standard residue; d: D form. The star is where a group is joined. Tyr(Nα,Nα-allyl2) = C=CCN(CC=C)[C@@H](Cc1ccc(O)cc1)C(=O)*; Aib = CC(C)(N)C(=O)O
Please respond with Satisfied when measured IC50 ratio is strictly beneath 2, and with Not satisfied in all other cases.

- Molecule: "Oc1ccc2c3c1O[C@H]1c4[nH]c5c(O)cccc5c4C[C@@]4(O)[C@@H](C2)N(CC2CC2)CC[C@]314"
  Group: "Satisfied"
- Molecule: "Oc1ccc2c3c1O[C@H]1c4[nH]c5cc(F)ccc5c4C[C@@]4(O)[C@@H](C2)N(CC2CC2)CC[C@]314"
  Group: "Satisfied"
- Molecule: "C=CCN(CC=C)[C@@H](Cc1ccc(O)cc1)C(=O)NC(C)(C)C(=O)NC(C)(C)C(=O)N[C@@H](Cc1ccccc1)C(=O)N[C@@H](CC(C)C)C(=O)O ({Tyr(Nα,Nα-allyl2)}-[Aib][Aib]FL-OH)"
  Group: "Satisfied"
- Molecule: "Oc1ccc2c3c1O[C@H]1c4c(c5ccccc5n4-c4ccccc4)C[C@@]4(O)[C@@H](C2)N(CC2CC2)CC[C@]314"
  Group: "Satisfied"
- Molecule: "Cc1ccc2[nH]c3c(c2c1)C[C@@]1(O)[C@H]2Cc4ccc(O)c5c4[C@@]1(CCN2CC1CC1)[C@H]3O5"
  Group: "Satisfied"

Q. Decide: IC50 ratio of `Oc1ccc2[nH]c3c(c2c1)C[C@@]1(O)[C@H]2Cc4ccc(O)c5c4[C@@]1(CCN2CC1CC1)[C@H]3O5` strictly below 2?
A. Not satisfied

Q. Try this molecule next: `Oc1ccc2c3c1O[C@H]1c4[nH]c5c(ccc6ccccc65)c4C[C@@]4(O)[C@@H](C2)N(CC2CC2)CC[C@]314`
A. Satisfied

Q. Next up: `CN1CC[C@]23c4c5ccc(O)c4O[C@H]2c2c(c4ccccc4n2C)C[C@@]3(O)[C@H]1C5`
A. Satisfied

Q. Same lookup for `C=CCN1CC[C@]23c4c5ccc(O)c4O[C@H]2c2[nH]c4ccccc4c2C[C@@]3(O)[C@H]1C5` , please.
A. Satisfied

Q. Further, for `CC(=O)O[C@@]12Cc3c([nH]c4ccccc34)[C@@H]3Oc4c(O)ccc5c4[C@@]31CCN(CC1CC1)[C@@H]2C5` ?
A. Satisfied

Q. Now consider `Oc1ccc2c3c1O[C@H]1c4[nH]c5c(F)cccc5c4C[C@@]4(O)[C@@H](C2)N(CC2CC2)CC[C@]314` and answer again.
A. Not satisfied

Q. Input `COc1ccc2[nH]c3c(c2c1)C[C@@]1(O)[C@H]2Cc4ccc(O)c5c4[C@@]1(CCN2CC1CC1)[C@H]3O5`
A. Not satisfied

Where these numbers come from: ChEMBL document CHEMBL1124798
